Entry source: PubChem BioAssay (NCATS)

# Test: qHTS assay to identify inhibitors of the type 1 interferon - major histocompatibility complex class I in skeletal muscle: Counter screen cell viability and HiBit confirmation (AID 1347412); also: potency is read from the fitted curve at half-maximal effect; nearly all actives have a fitted effect of over 60% in size
# Assay Conditions: iHSKM muscle cells + IFN-b, HiBiT or CellTiter-Glo, 24 h; HiBiT
Results filed as inconclusive are left out. The source made the active and inactive calls. Calls follow the shape of the dose curve; as a rule, active = well fitted inhibition curve with a large enough effect; inconclusive = small, poorly fitted or top-dose-only effect; inactive = no such curve, though single readings can be large or run the other way.
Property Measured: Potency

Before answering, review these 5 worked examples.
COc1cc2ncnc(Oc3cccc(NC(=O)Nc4cc(C(C)(C)C(F)(F)F)on4)c3)c2cc1OC :: 24.9 µM (active)
C=C1C(=O)O[C@@H]2[C@H]3O[C@]3(C)CC/C=C(\C)CC[C@@H]12 :: 7.01 µM (active)
COc1cc2nc(-c3cc(F)ccc3O)nc(N[C@@H]3CNC[C@H]3C(C)(C)O)c2cc1OC :: 8.83 µM (active)
O=Nc1c(-c2c(O)[nH]c3ccccc23)[nH]c2ccccc12 :: 14 µM (active)
CN1CCC(c2c(O)cc(O)c3c(=O)cc(-c4ccccc4Cl)oc23)C1CO (centres undefined) :: 0.787 µM (active)

I need Potency for every entry listed below, if you could help.
1. COc1cc(F)ccc1-c1ncnc(Nc2cccc(CS(C)(=N)=O)c2)n1 (centres undefined)
2. C=CC(=O)Nc1cccc(C)c1Nc1ncc2cc(-c3c(Cl)c(OC)cc(OC)c3Cl)ccc2n1
3. C=CC(=O)Nc1cc(Nc2nccc(-c3cn(C)c4ccccc34)n2)c(OC)cc1N(C)CCN(C)C
4. COCCNCc1ccc(-c2cc3nccc(Oc4ccc(NC(=S)NC(=O)Cc5ccc(F)cc5)cc4F)c3s2)nc1

Result string:
1: 0.991 µM (active); 2: 15.7 µM (active); 3: 24.9 µM (active); 4: 12.5 µM (active)
